The values you see were collected from the supplement of paper PMC9233669.

tested on: biotinyl-Met-oxazolone; assay: self-aminoacylation, catalytic enhancement (BMO) (fold over background); higher = more active; k-Seq, kA / k0A0; sequences stand for … in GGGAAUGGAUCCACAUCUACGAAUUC…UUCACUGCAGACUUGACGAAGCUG
Fewer inactive variants are shown than the library holds.
Label True when self-aminoacylation is at or above 6; anything below gets False.

| query sequence | answer label |
| --- | --- |
| GAGUUUGCCAAUAGUCGCAAG [Fam3.1 aminoacylation ribozyme variant] | False |
| CCUCACUUCAAGGAAUCGGUC [Fam1B.1 aminoacylation ribozyme variant] | False |
| AAGUUUGCUAAGAGUCGCAAG [Fam3.1 aminoacylation ribozyme variant] | False |
| AUUGCCCUGGUCAUAGAGUGA [Fam2.1 aminoacylation ribozyme variant] | True |
